biological target: UniProt P11362; assay: FGFR Kinase assay - Caliper; assay type: biochemical; conditions: FGFR1 […], 408 uM ATP; mean of n as printed; read-out: FGFR Kinase assay - Caliper, IC50; further: 408 µM ATP
# note: boundary value 3000 nM maps to label 0; IC50 below it maps to label 1

In [3]: df
Out[3]:
                            smiles_notation  category
0  COc1cc(CCc2cc(NC(=O)c3ccc(CN4CCN(C)CC4)cc3)n[nH]2)cc(OC)c1   label 1
1  COc1cc(CCc2cc(NC(=O)c3ccc(CCN4CCOCC4)cc3)n[nH]2)cc(OC)c1   label 1
2  COC(=O)c1ccc(C(=O)Nc2cc(CCc3cccc(OC)c3)n[nH]2)cn1   label 1
3  COc1cc(CCc2cc(NC(=O)c3ccc(OCCN4CCOCC4)cc3)n[nH]2)cc(OC)c1   label 1

Now look at this entry.
I'd appreciate it if you could check whether C=CCOC(=O)Nc1ccc(C(=O)Nc2cc(CCc3cccc(OC)c3)n[nH]2)cn1 has IC50 smaller than 3000 nM.
label 0

---

target: FGFR1 active kinase (Homo sapiens); assay: FGFR Kinase assay - Caliper Echo Dosing; assay type: biochemical; conditions: FGFR1 7.2 nM, 408 uM ATP, acoustic dosing; geometric mean of n
One threshold, 0.8 nM, splits the recorded IC50 values: lower ones are True, equal or higher ones are False.

Dear colleague, could you confirm whether IC50 of COc1cc(CCc2cc(NC(=O)c3cnc(N4CCCN(C(C)C)CC4)nc3)[nH]n2)cc(OC)c1 [Example 173] falls below 0.8 nM? Thanks.
False

Just wondering, is IC50 of COc1cc(CCc2cc(NC(=O)c3ccc(N4CC(C)N(C)C(C)C4)cc3)n[nH]2)cc(OC)c1 (centres unmarked) [Example 96] below 0.8 nM?
True

Regarding COc1cc(CCc2cc(NC(=O)c3cnc(N4CCN(C5CC5)CC4)nc3)[nH]n2)cc(OC)c1 [Example 126] , kindly confirm whether its IC50 is beneath 0.8 nM.
False

Item COc1cc(COc2cc(NC(=O)c3ccc(N4CCN(C)C(C)C4)cc3)[nH]n2)cc(OC)c1 (centres unmarked) [Example 101] : IC50 beneath 0.8 nM, strictly?
False

---

biological target: FGFR1 active kinase (Homo sapiens); assay: FGFR Kinase assay - Caliper Echo Dosing; format: biochemical; conditions: FGFR1 7.2 nM, 408 uM ATP, acoustic dosing; geometric mean of n
assay-metric: pIC50
Numbers only, as −log10 of the molar value.

>>> df
                                   molecule  test_value
0  CCN1CCN(c2ccc(C(=O)Nc3cc(OCc4cc(OC)cc(OC)c4)n[nH]3)cc2)CC1        9.17
1  COc1cc(COc2cc(NC(=O)c3ccc(N4CC5CCCNC5C4)cc3)[nH]n2)cc(OC)c1 (stereo not drawn)        8.89
2  COCC1CN(c2ncc(C(=O)Nc3cc(CCc4cc(OC)cc(OC)c4)n[nH]3)cn2)CCN1 (stereo not drawn)        8.37
3  COc1cc(COc2cc(NC(=O)c3cnc(N4CCN(C5CC5)CC4)cn3)[nH]n2)cc(OC)c1        8.52
4  CNC1CCN(c2cnc(C(=O)Nc3cc(CCc4cc(OC)cc(OC)c4)n[nH]3)cn2)C1 (stereo not drawn)        8.52

Working through the 7 molecules below one at a time, give pIC50 for each.
1. COc1cc(CCc2cc(NC(=O)c3cnc(N4CCN5CCCC5C4)cn3)[nH]n2)cc(OC)c1 (stereo not drawn)
2. COc1cc(CCc2cc(NC(=O)c3ccc(N4CCN(C)CC4)cc3)[nH]n2)cc(OC)c1
3. COc1cc(CCc2cc(NC(=O)c3ccc(N4CCCN(C)CC4)cc3)[nH]n2)cc(OC)c1
4. COc1cc(CCc2cc(NC(=O)c3cnc(N4CCN5CCCCC5C4)cn3)[nH]n2)cc(OC)c1 (stereo not drawn)
5. C#CCN1CCC(c2ccc(C(=O)Nc3cc(CCc4cc(OC)cc(OC)c4)n[nH]3)cc2)CC1
6. CCN1CCCN(c2ccc(C(=O)Nc3cc(CCc4cc(OC)cc(OC)c4)n[nH]3)cc2)CC1
7. COCCN1CCC(c2ccc(C(=O)Nc3cc(CCc4cc(OC)cc(OC)c4)n[nH]3)cc2)CC1

1: 8.80; 2: 9.07; 3: 9.09; 4: 6.89; 5: 8.96; 6: 9.15; 7: 9.06

# return pIC50 for each item in the list
1. CCN1CCN(c2ncc(C(=O)Nc3cc(CCc4cc(OC)cc(OC)c4)n[nH]3)cn2)CC1C (stereo not drawn)
2. COc1cc(CCc2cc(NC(=O)c3cnc(N4CCN5CCCCC5C4)nc3)[nH]n2)cc(OC)c1 (stereo not drawn)
3. COc1cc(CCc2cc(NC(=O)c3ccc(N4CCCNCC4)cc3)[nH]n2)cc(OC)c1

8.57
8.54
9.15

# per-item lookup of pIC50; items listed below
1. COc1cc(CCc2cc(NC(=O)c3cnc(N4CCCN(C(C)C)CC4)cn3)[nH]n2)cc(OC)c1
2. COc1cc(COc2cc(NC(=O)c3ccc(N4CCN(C5CCC5)CC4)cc3)[nH]n2)cc(OC)c1

1. 9.20
2. 8.96

Please supply pIC50 for each of the following items, keeping them in order.
1. COc1cc(COc2cc(NC(=O)c3cnc(N4CCN(C)C(C)C4)cn3)[nH]n2)cc(OC)c1 (stereo not drawn)
2. COc1cc(COc2cc(NC(=O)c3ccc(N4CCN5CCCC5C4)s3)[nH]n2)cc(OC)c1 (stereo not drawn)
3. COc1cc(CCc2cc(NC(=O)c3cnc(N4CCCN(C5CC5)CC4)nc3)[nH]n2)cc(OC)c1
4. COc1cc(COc2cc(NC(=O)c3cnc(N4CCN5CCCC5C4)cn3)[nH]n2)cc(OC)c1 (stereo not drawn)
5. COc1cc(CCc2cc(NC(=O)c3ccc(N4CCN(C(C)CO)CC4)cc3)[nH]n2)cc(OC)c1 (stereo not drawn)
6. COc1cc(CCc2cc(NC(=O)c3ccc(N4CCN(C(=O)OC(C)(C)C)CC4)s3)[nH]n2)cc(OC)c1

[8.82, 9.10, 8.14, 8.89, 9.24, 7.55]

State, in one line, measured pIC50 of COc1cc(CCc2cc(NC(=O)c3ccc(N4CCCN(C5CC5)CC4)cc3)[nH]n2)cc(OC)c1
10.19

---

Molecular target: FGFR1 active kinase (Homo sapiens, UniProt P11362)
Sequence (P11362 22-822): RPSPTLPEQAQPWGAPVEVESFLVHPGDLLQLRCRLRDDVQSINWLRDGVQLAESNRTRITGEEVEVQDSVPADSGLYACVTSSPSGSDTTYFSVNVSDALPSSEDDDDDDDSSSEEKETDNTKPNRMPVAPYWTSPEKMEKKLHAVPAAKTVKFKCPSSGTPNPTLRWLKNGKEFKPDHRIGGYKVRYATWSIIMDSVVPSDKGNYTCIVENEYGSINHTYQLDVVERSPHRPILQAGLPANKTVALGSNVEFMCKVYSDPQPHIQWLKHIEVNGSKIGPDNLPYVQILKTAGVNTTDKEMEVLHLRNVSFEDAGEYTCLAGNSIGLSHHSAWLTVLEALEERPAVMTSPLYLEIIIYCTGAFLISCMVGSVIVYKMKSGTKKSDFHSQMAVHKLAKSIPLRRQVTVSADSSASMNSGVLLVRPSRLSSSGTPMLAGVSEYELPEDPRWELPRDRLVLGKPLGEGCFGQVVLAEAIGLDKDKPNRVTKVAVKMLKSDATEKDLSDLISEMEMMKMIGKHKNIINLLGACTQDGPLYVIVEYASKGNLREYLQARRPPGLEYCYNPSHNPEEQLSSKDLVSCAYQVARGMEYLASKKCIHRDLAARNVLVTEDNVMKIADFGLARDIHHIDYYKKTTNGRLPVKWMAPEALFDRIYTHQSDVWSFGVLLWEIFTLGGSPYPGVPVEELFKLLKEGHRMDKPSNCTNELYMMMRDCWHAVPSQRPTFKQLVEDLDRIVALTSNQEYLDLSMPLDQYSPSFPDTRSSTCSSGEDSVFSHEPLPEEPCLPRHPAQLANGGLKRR
Test: FGFR Kinase assay - Caliper Echo Dosing
Format: biochemical
Details: FGFR1 7.2 nM, 408 uM ATP, acoustic dosing; geometric mean of n
Method: FGFR Kinase Assay—Caliper Echo Dosing To determine inhibition of FGFR activity, kinase assays were conducted using Caliper technology. […] In the assay, compounds were tested at a range of concentrations. […] Percentage inhibition at 1 uM, as expressed herein, is a calculated value based on the curve fit that was generated experimentally. From the fitted curve plot, the effect of compound at a concentration of 1 uM was calculated as a percentage inhibition. […]
Classify: Met when IC50 is strictly less than 2 nM; Not met when IC50 is not.

Solved cases (8 shown):
>>> df
                                   compound  category
0  C=CCN1CCCN(c2ncc(C(=O)Nc3cc(CCc4cc(OC)cc(OC)c4)n[nH]3)cn2)CC1   Not met
1  COc1cc(CCc2cc(NC(=O)c3cnc(N4CCN(C)C(C)C4)cn3)[nH]n2)cc(OC)c1 (stereo not drawn)   Not met
2  COc1cc(CCc2cc(NC(=O)c3cnc(N4C[C@@H](C)N(C)[C@@H](C)C4)cn3)[nH]n2)cc(OC)c1       Met
3  COc1cc(COc2cc(NC(=O)c3cnc(N4CCN5CCCC5C4)nc3)[nH]n2)cc(OC)c1 (stereo not drawn)   Not met
4  COc1cc(COc2cc(NC(=O)c3ccc(N4CCNC(C)(C)C4)s3)[nH]n2)cc(OC)c1       Met
5  COc1cc(CCc2cc(NC(=O)c3ccc(I)cc3)[nH]n2)cc(OC)c1   Not met
6  COc1cc(CCc2cc(NC(=O)c3cnc(N4CCN(C5CC5)CC4)cn3)[nH]n2)cc(OC)c1   Not met
7  COc1cc(CCc2cc(NC(=O)c3ccc(N4CCCN(C(C)C)CC4)s3)[nH]n2)cc(OC)c1       Met

Consider now this further compound.
Criterion: IC50 strictly below 2 nM. Is it met by COc1cc(CCc2cc(NC(=O)c3cnc(N4CCCN(C)CC4)cn3)[nH]n2)cc(OC)c1 ?
Met
